These entries and their values trace back to ChEMBL document CHEMBL1817606.

MEASUREMENT_TARGET: UniProt P25103
ASSAY_EXPLANATION: Displacement of [125I]BH-SP from human tachykinin NK1 receptor expressed in IM9 cells after 30 mins by scintillation counting
Here, each record is paired with measured pIC50 data.
Friendly reminder that pIC50 comes from taking -log10 of the concentration in mol/L.

# annotated cases, reported pIC50 shown
[[record]]
molecule = "COc1ccc(NC(C)=O)cc1CN1CCC(=O)C(C(c2ccccc2)c2ccccc2)C1 (racemic)"
observed = 7.82

[[record]]
molecule = "O=C1CCN(Cc2cccc(C(F)(F)F)c2)CC1C(c1ccc(F)cc1)c1ccc(F)cc1 (racemic)"
observed = 6.57

[[record]]
molecule = "COc1cccc(OC)c1CN1CCC(=O)C(C(c2ccc(F)cc2)c2ccc(F)cc2)C1 (racemic)"
observed = 8.64


### Prompt Name the recorded pIC50 of the molecule listed here: O=C1CCN(Cc2ccccc2[N+](=O)[O-])CC1C(c1ccc(F)cc1)c1ccc(F)cc1 (racemic)
### Response 7.74

### Prompt Name the recorded pIC50 of the molecule listed here: COc1ccc(Br)cc1CN1CCC(=O)C(C(c2ccc(F)cc2)c2ccc(F)cc2)C1 (racemic)
### Response 8.96

###

MEASUREMENT_TARGET: Substance-P receptor (Homo sapiens, UniProt P25103)
Sequence (P25103 whole entry): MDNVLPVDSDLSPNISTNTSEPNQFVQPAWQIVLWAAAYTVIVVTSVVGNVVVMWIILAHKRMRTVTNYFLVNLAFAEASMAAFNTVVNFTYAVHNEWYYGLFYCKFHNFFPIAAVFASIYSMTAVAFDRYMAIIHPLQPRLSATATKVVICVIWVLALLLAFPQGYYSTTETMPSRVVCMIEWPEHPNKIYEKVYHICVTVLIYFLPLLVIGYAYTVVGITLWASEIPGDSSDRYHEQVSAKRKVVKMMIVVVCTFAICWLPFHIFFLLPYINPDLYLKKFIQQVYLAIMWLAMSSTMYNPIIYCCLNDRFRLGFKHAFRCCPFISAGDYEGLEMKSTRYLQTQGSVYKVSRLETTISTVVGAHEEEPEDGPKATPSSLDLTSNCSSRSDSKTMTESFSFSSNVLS
ASSAY_EXPLANATION: Displacement of [125I]BH-SP from human tachykinin NK1 receptor expressed in IM9 cells after 30 mins by scintillation counting
Format: cell-based, IM-9
Classification by IC50 | ranges: group A = under 6 nM, group B = from 6 nM up to 50 nM, group C = 50 nM and over

The following compounds have reported results that may help.
[[record]]
compound = "COc1ccc(CN2CCC(=O)C(C(c3ccc(F)cc3)c3ccc(F)cc3)C2)cc1 (racemic)"
measurement_target = "Substance-P receptor (Homo sapiens, UniProt P25103)"
qualitative_label = "group C"

[[record]]
compound = "O=C1CCN(Cc2ccccc2F)CC1C(c1ccc(F)cc1)c1ccc(F)cc1 (racemic)"
measurement_target = "Substance-P receptor (Homo sapiens, UniProt P25103)"
qualitative_label = "group B"


### Prompt # classify by IC50 band: COc1ccc([N+](=O)[O-])cc1CN1CCC(=O)C(C(c2ccccc2)c2ccccc2)C1 (racemic)
### Response group A

### Prompt # classify by IC50 band: O=C1CCN(Cc2ccccc2)CC1C(c1ccc(F)cc1)c1ccc(F)cc1 (racemic)
### Response group C

### Prompt # classify by IC50 band: COc1ccccc1CN1CCC(=O)C(C(c2ccc(F)cc2)c2ccc(F)cc2)C1 (racemic)
### Response group B

### Prompt # classify by IC50 band: COc1ccc(OC)c(CN2CCC(=O)C(C(c3ccc(F)cc3)c3ccc(F)cc3)C2)c1 (racemic)
### Response group A

### Prompt # classify by IC50 band: O=C1CCN(Cc2ccccc2-c2ccccc2)CC1C(c1ccc(F)cc1)c1ccc(F)cc1 (racemic)
### Response group B

### Prompt # classify by IC50 band: COc1cccc(CN2CCC(=O)C(C(c3ccc(F)cc3)c3ccc(F)cc3)C2)c1 (racemic)
### Response group B

###

MEASUREMENT_TARGET: Substance-P receptor (Homo sapiens)
ASSAY_EXPLANATION: Displacement of [125I]BH-SP from human tachykinin NK1 receptor expressed in IM9 cells at 10^-7 M after 30 mins by scintillation counting
Type: cell-based
MEASUREMENT_SETUP: IM-9
RESULT_TYPE: inhibition (%)
Record the value in %, omitting the unit from your answer.

# annotated cases, reported inhibition shown
[[record]]
compound = "O=C1CN(Cc2ccccc2)CC1C(c1ccccc1)c1ccccc1 (racemic)"
result_type = "inhibition"
observed = -0.6

[[record]]
compound = "O=C1CCN(Cc2ccccc2)CC1C1c2ccccc2C=Cc2ccccc21 (racemic)"
result_type = "inhibition"
observed = 31.1

[[record]]
compound = "O=C1CCN(Cc2ccccc2)CC1=C(c1ccccc1)c1ccccc1"
result_type = "inhibition"
observed = -2

[[record]]
compound = "O=C1CCN(Cc2ccccc2)CC1C(c1ccccc1)c1ccccc1 (racemic)"
result_type = "inhibition"
observed = 81.7

[[record]]
compound = "O=C1CCN(CCc2ccccc2)CC1C(c1ccccc1)c1ccccc1 (racemic)"
result_type = "inhibition"
observed = 54.3

[[record]]
compound = "O=C1CCNCC1C(c1ccccc1)c1ccccc1 (racemic)"
result_type = "inhibition"
observed = 17.6

[[record]]
compound = "O=C1CN(Cc2ccccc2)CCC1C(c1ccccc1)c1ccccc1 (racemic)"
result_type = "inhibition"
observed = 9.7

[[record]]
compound = "O=C1CCN(Cc2ccccc2)CC1C1c2ccccc2Oc2ccccc21 (racemic)"
result_type = "inhibition"
observed = 29.8

[[record]]
compound = "O=C1CCN(Cc2cc(C(F)(F)F)cc(C(F)(F)F)c2)CC1C(c1ccc(F)cc1)c1ccc(F)cc1 (racemic)"
result_type = "inhibition"
observed = 32.9

[[record]]
compound = "O=C1CCN(Cc2ccccc2)CC1C(c1ccc(F)cc1)c1ccc(F)cc1 (racemic)"
result_type = "inhibition"
observed = 81.7


### Prompt Name the recorded inhibition of the compound listed here: O=C1CCN(Cc2ccccc2)CC1C(c1ccc(Cl)cc1)c1ccc(Cl)cc1 (racemic)
### Response 81.7
